- tested_on: Mu-type opioid receptor (Rattus norvegicus)
- Sequence (P33535 whole entry): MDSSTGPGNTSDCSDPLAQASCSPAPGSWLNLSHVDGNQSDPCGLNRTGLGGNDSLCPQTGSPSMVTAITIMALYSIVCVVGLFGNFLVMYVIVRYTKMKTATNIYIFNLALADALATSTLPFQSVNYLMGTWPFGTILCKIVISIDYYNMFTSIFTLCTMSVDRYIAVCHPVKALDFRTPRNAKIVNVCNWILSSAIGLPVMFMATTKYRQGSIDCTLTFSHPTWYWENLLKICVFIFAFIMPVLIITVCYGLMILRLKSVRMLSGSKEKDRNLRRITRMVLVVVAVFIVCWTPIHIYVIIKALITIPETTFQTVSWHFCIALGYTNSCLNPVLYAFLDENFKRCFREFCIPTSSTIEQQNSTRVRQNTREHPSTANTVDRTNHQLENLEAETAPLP
value_type: Ki (nM)
Number only, in nM; omit the unit.

Sample answers from the record:
chemical_smiles	Ki [nM]
CCCC[C@@H](C(=O)N[C@@H](CC(=O)O)C(=O)N[C@@H](Cc1ccccc1)C(N)=O)N(C)C(=O)[C@H](Cc1c[nH]c2ccccc12)NC(=O)CNC(=O)[C@@H](C)NC(=O)[C@@H](N)Cc1ccc(O)cc1	39
CCCC[C@H](NC(=O)[C@@H](Cc1c[nH]c2ccccc12)NC(=O)CNC(=O)[C@@H](Cc1ccccc1)NC(=O)[C@@H](N)Cc1ccc(O)cc1)C(=O)N[C@@H](CC(=O)O)C(=O)N[C@@H](Cc1ccccc1)C(N)=O	300
CCCC[C@H](NC(=O)[C@H](Cc1c[nH]c2ccccc12)NC(=O)CNC(=O)[C@@H](C)NC(=O)[C@@H](N)Cc1ccc(O)cc1)C(=O)N[C@@H](CC(=O)O)C(=O)N[C@@H](Cc1ccccc1)C(N)=O	7.8
CCCC[C@H](NC(=O)[C@@H](Cc1c[nH]c2ccccc12)NC(=O)CNC(=O)[C@@H](CCCC)NC(=O)[C@@H](N)Cc1ccc(O)cc1)C(=O)N[C@@H](CC(=O)O)C(=O)N[C@@H](Cc1ccccc1)C(N)=O	270
CCCC[C@@H](NC(=O)[C@@H](N)Cc1ccc(O)cc1)C(=O)NCC(=O)N[C@H](Cc1c[nH]c2ccccc12)C(=O)N(C)[C@@H](CCCC)C(=O)N[C@@H](CC(=O)O)C(=O)N[C@@H](Cc1ccccc1)C(N)=O	1200

Please report the recorded Ki for `CCCC[C@H](NC(=O)[C@H](Cc1c[nH]c2ccccc12)NC(=O)CNC(=O)[C@@H](CCCC)NC(=O)[C@@H](N)Cc1ccc(O)cc1)C(=O)N[C@@H](CC(=O)O)C(=O)N[C@@H](Cc1ccccc1)C(N)=O` .
26

* * *

Reported Emax values for the following compounds.
- tested_on: Delta-type opioid receptor (Homo sapiens)
- Sequence (P41143 whole entry): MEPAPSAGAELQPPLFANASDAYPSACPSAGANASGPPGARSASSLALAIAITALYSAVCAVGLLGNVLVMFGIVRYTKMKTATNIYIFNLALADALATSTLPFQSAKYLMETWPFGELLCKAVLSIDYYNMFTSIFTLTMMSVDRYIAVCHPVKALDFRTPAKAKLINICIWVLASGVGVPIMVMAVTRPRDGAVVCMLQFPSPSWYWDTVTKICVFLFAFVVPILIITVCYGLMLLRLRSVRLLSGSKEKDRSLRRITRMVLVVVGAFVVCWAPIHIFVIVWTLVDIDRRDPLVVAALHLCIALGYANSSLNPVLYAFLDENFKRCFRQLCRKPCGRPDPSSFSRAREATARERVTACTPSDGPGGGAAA
- experimental_details: Activity against [35S]GTP-gamma-S binding to human delta opioid receptor expressed in HN9.10 cells
- Assay type: functional, cell-based
Where a SMILES comes first, the peptide text is derived from it. [ ]: non-standard residue; d: D form. NMeNle = CCCC[C@H](NC)C(=O)O
Only the number, expressed in %, is required.

compound	unit_of_measure	result_number
CCCC[C@@H](C(=O)N[C@@H](CC(=O)O)C(=O)N[C@@H](Cc1ccccc1)C(N)=O)N(C)C(=O)[C@H](Cc1c[nH]c2ccccc12)NC(=O)CNC(=O)CNC(=O)[C@@H](N)Cc1ccc(O)cc1 (H-YGGW[NMeNle]DF-NH2)	%	68
CCCC[C@H](NC(=O)[C@H](Cc1c[nH]c2ccccc12)NC(=O)CNC(=O)[C@@H](Cc1ccccc1)NC(=O)[C@@H](N)Cc1ccc(O)cc1)C(=O)N[C@@H](CC(=O)O)C(=O)N[C@@H](Cc1ccccc1)C(N)=O	%	170

# get_value(readout= Emax, system= Delta-type opioid receptor (Homo sapiens)) for `CCCC[C@@H](NC(=O)[C@@H](N)Cc1ccc(O)cc1)C(=O)NCC(=O)N[C@@H](Cc1c[nH]c2ccccc12)C(=O)N(C)[C@@H](CCCC)C(=O)N[C@@H](CC(=O)O)C(=O)N[C@@H](Cc1ccccc1)C(N)=O`
150

* * *

- tested_on: UniProt:P32238
- experimental_details: Displacement of [125I]CCK-8(SO3) from human CCK1 receptor expressed in HEK293 cells
Reported values of pIC50 for individual entries
Keep it numeric: pIC50 is minus log10 of the concentration in mol/L.

Some molecules with recorded pIC50:
chemical_smiles	pIC50
CCCC[C@@H](C(=O)N[C@@H](CC(=O)O)C(=O)N[C@@H](Cc1ccccc1)C(N)=O)N(C)C(=O)[C@H](Cc1c[nH]c2ccccc12)NC(=O)CNC(=O)[C@@H](Cc1ccccc1)NC(=O)[C@H](Cc1ccc(O)cc1)NC(=O)[C@@H](N)CC(=O)O	5.50
CCCC[C@@H](NC(=O)[C@@H](N)Cc1ccc(O)cc1)C(=O)NCC(=O)N[C@H](Cc1c[nH]c2ccccc12)C(=O)N(C)[C@@H](CCCC)C(=O)N[C@@H](CC(=O)O)C(=O)N[C@@H](Cc1ccccc1)C(N)=O	5.04
CCCC[C@@H](C(=O)N[C@@H](CC(=O)O)C(=O)N[C@@H](Cc1ccccc1)C(N)=O)N(C)C(=O)[C@H](Cc1c[nH]c2ccccc12)NC(=O)CNC(=O)[C@@H](C)NC(=O)[C@@H](N)Cc1ccc(O)cc1	5.29

Quick one: pIC50 for `CCCC[C@H](NC(=O)[C@@H](Cc1c[nH]c2ccccc12)NC(=O)CNC(=O)[C@@H](Cc1ccccc1)NC(=O)[C@@H](N)Cc1ccc(O)cc1)C(=O)N[C@@H](CC(=O)O)C(=O)N[C@@H](Cc1ccccc1)C(N)=O` ?
5.71

Could you do the same for `CCCC[C@@H](C(=O)N[C@@H](CC(=O)O)C(=O)N[C@@H](Cc1ccccc1)C(N)=O)N(C)C(=O)[C@H](Cc1c[nH]c2ccccc12)NC(=O)CNC(=O)[C@H]1CCCN1C(=O)[C@@H](N)Cc1ccc(O)cc1` , please?
4.98

Quick one: `CCCC[C@H](NC(=O)[C@H](Cc1c[nH]c2ccccc12)NC(=O)CNC(=O)[C@@H](C)NC(=O)[C@@H](N)Cc1ccc(O)cc1)C(=O)N[C@@H](CC(=O)O)C(=O)N[C@@H](Cc1ccccc1)C(N)=O`
5.24

Next record, please: `CCCC[C@@H](C(=O)N[C@@H](CC(=O)O)C(=O)N[C@@H](Cc1ccccc1)C(N)=O)N(C)C(=O)[C@@H](Cc1c[nH]c2ccccc12)NC(=O)CNC(=O)[C@@H](C)NC(=O)[C@@H](N)Cc1ccc(O)cc1`
6.50

* * *

- tested_on: Cholecystokinin receptor type A (Homo sapiens, UniProt P32238)
- Sequence (P32238 whole entry): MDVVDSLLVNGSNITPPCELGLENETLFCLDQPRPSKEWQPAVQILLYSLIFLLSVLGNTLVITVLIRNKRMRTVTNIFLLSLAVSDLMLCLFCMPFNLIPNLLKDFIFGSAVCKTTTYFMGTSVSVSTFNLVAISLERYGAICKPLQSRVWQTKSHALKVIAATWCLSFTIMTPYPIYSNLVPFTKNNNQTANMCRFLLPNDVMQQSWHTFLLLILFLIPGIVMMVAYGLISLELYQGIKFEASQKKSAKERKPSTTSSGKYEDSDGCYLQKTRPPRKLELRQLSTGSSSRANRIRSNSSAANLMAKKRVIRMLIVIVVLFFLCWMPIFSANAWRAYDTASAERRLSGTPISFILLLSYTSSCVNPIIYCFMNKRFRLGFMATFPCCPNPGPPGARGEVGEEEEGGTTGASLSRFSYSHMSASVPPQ
# Lookup of reported Ki keyed by entry
Kindly provide the numeric value in µM only, without the unit symbol.

chemical_smiles	Ki, µM
CCCC[C@@H](NC(=O)[C@@H](N)Cc1ccc(O)cc1)C(=O)NCC(=O)N[C@H](Cc1c[nH]c2ccccc12)C(=O)N(C)[C@@H](CCCC)C(=O)N[C@@H](CC(=O)O)C(=O)N[C@@H](Cc1ccccc1)C(N)=O	0.91

Consider now this further compound.
Report Ki for `CCCC[C@H](NC(=O)[C@H](Cc1c[nH]c2ccccc12)NC(=O)CNC(=O)[C@@H](C)NC(=O)[C@@H](N)Cc1ccc(O)cc1)C(=O)N[C@@H](CC(=O)O)C(=O)N[C@@H](Cc1ccccc1)C(N)=O` please.
5.7

* * *

Emax: recorded values
- tested_on: Delta-type opioid receptor (Homo sapiens)
- experimental_details: Activity against [35S]GTP-gamma-S binding to human delta opioid receptor expressed in HN9.10 cells
- Type: functional, cell-based
Write the number in % without appending the unit.

Examples with their reported Emax follow.
chemical_smiles	tested_on	result_number
CCCC[C@H](NC(=O)[C@H](Cc1c[nH]c2ccccc12)NC(=O)CNC(=O)[C@@H](CCCC)NC(=O)[C@@H](N)Cc1ccc(O)cc1)C(=O)N[C@@H](CC(=O)O)C(=O)N[C@@H](Cc1ccccc1)C(N)=O	Delta-type opioid receptor (Homo sapiens)	81
CCCC[C@H](NC(=O)[C@@H](Cc1c[nH]c2ccccc12)NC(=O)CNC(=O)[C@@H](CCCC)NC(=O)[C@@H](N)Cc1ccc(O)cc1)C(=O)N[C@@H](CC(=O)O)C(=O)N[C@@H](Cc1ccccc1)C(N)=O	Delta-type opioid receptor (Homo sapiens)	75
CCCC[C@@H](C(=O)N[C@@H](CC(=O)O)C(=O)N[C@@H](Cc1ccccc1)C(N)=O)N(C)C(=O)[C@H](Cc1c[nH]c2ccccc12)NC(=O)CNC(=O)[C@@H](C)NC(=O)[C@@H](N)Cc1ccc(O)cc1	Delta-type opioid receptor (Homo sapiens)	270
CCCC[C@H](NC(=O)[C@@H](Cc1c[nH]c2ccccc12)NC(=O)CNC(=O)[C@@H](C)NC(=O)[C@@H](N)Cc1ccc(O)cc1)C(=O)N[C@@H](CC(=O)O)C(=O)N[C@@H](Cc1ccccc1)C(N)=O	Delta-type opioid receptor (Homo sapiens)	91
CCCC[C@H](NC(=O)[C@@H](Cc1c[nH]c2ccccc12)NC(=O)CNC(=O)[C@@H](Cc1ccccc1)NC(=O)[C@@H](N)Cc1ccc(O)cc1)C(=O)N[C@@H](CC(=O)O)C(=O)N[C@@H](Cc1ccccc1)C(N)=O	Delta-type opioid receptor (Homo sapiens)	170

The record that follows has no Emax shown yet.
Any idea what its Emax is? The molecule is `CCCC[C@H](NC(=O)[C@H](Cc1c[nH]c2ccccc12)NC(=O)CNC(=O)[C@@H](C)NC(=O)[C@@H](N)Cc1ccc(O)cc1)C(=O)N[C@@H](CC(=O)O)C(=O)N[C@@H](Cc1ccccc1)C(N)=O`
74

* * *

- tested_on: Mu-type opioid receptor (Cavia porcellus)
- Sequence (P97266 whole entry): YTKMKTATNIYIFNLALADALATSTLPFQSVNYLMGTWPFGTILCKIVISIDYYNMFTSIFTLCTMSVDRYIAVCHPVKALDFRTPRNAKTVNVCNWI
- experimental_details: Agonist activity at mu opioid receptor assessed as inhibition of electrically stimulated Hartley guinea pig ileum contraction
Where a SMILES comes first, the peptide text is derived from it. [ ]: non-standard residue; d: D form. NMeNle = CCCC[C@H](NC)C(=O)O
The following compounds are shown together with reported IC50 values.
The reply should be a number in nM, with the unit left off.

These solved cases illustrate the format of a correct answer.
compound	result_number
CCCC[C@H](NC(=O)[C@@H](Cc1c[nH]c2ccccc12)NC(=O)CNC(=O)[C@@H](Cc1ccccc1)NC(=O)[C@@H](N)Cc1ccc(O)cc1)C(=O)N[C@@H](CC(=O)O)C(=O)N[C@@H](Cc1ccccc1)C(N)=O	2700
CCCC[C@@H](NC(=O)[C@@H](N)Cc1ccc(O)cc1)C(=O)NCC(=O)N[C@@H](Cc1c[nH]c2ccccc12)C(=O)N(C)[C@@H](CCCC)C(=O)N[C@@H](CC(=O)O)C(=O)N[C@@H](Cc1ccccc1)C(N)=O	48
CCCC[C@@H](C(=O)N[C@@H](CC(=O)O)C(=O)N[C@@H](Cc1ccccc1)C(N)=O)N(C)C(=O)[C@@H](Cc1c[nH]c2ccccc12)NC(=O)CNC(=O)[C@@H](C)NC(=O)[C@@H](N)Cc1ccc(O)cc1	150

# next compound below
Request the reported IC50 associated with CCCC[C@@H](C(=O)N[C@@H](CC(=O)O)C(=O)N[C@@H](Cc1ccccc1)C(N)=O)N(C)C(=O)[C@H](Cc1c[nH]c2ccccc12)NC(=O)CNC(=O)CNC(=O)[C@@H](N)Cc1ccc(O)cc1 (H-YGGW[NMeNle]DF-NH2)
4200
